All figures here come from paper PMC6739329.

measured property: Kd (µM)
Please reply with the bare figure in µM and do not write the unit itself.

### Prompt Entry COc1cc(CCc2ccccc2)c(C(=O)O)c(O)c1C/C=C(\C)CCC=C(C)C [amoB1, amorfrutin B1] , system ENO1 (Homo sapiens, UniProt P06733): what Kd was measured?
### Response 26.9

---

- target or test system: PKM2 (Homo sapiens, UniProt P14618)
- Construct: each gene was amplified and cloned into pET28a vector for recombinant protein production; 6xHis
- Sequence (P14618 whole entry): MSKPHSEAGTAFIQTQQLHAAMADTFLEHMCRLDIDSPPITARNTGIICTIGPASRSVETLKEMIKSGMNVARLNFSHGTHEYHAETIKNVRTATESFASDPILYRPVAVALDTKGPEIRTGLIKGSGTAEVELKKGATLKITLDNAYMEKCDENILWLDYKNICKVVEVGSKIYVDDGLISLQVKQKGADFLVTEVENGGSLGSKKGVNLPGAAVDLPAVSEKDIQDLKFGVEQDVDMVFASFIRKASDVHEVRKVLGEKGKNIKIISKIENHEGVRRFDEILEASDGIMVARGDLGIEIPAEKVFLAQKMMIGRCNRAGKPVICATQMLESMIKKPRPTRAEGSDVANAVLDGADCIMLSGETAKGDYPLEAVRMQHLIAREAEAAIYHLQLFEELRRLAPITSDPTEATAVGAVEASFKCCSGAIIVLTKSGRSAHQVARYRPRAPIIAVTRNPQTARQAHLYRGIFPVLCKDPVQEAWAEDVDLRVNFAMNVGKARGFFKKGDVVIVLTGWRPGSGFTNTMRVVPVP
- test name: Tryptophan (Trp) intrinsic fluorescence assay of PKM2
- reported conditions: 1 µM PKM2, 30 min at RT; read-out: Kd (quenching of PKM2 intrinsic fluorescence)
measured property: pKd
In plain terms, pKd is the concentration in mol/L turned into minus its base-10 logarithm.

### Prompt Entry COc1cc(CCc2ccccc2)c(C(=O)O)c(O)c1C/C=C(\C)CCC=C(C)C , system PKM2 (Homo sapiens, UniProt P14618): what pKd was measured?
### Response 5.49

---

- target or test system: ENO1 (Homo sapiens)
- Sequence (P06733 whole entry): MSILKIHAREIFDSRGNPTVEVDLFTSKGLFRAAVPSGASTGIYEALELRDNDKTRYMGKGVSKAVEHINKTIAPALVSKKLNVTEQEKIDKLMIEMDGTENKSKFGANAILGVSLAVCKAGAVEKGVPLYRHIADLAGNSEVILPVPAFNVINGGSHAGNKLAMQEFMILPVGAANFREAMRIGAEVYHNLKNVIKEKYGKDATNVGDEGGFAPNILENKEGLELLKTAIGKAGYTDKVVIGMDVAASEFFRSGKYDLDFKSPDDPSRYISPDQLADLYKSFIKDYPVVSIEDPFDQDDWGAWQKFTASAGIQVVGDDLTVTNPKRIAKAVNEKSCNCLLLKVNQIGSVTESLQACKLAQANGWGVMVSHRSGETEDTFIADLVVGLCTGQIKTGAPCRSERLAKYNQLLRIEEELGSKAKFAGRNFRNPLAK
- test name: In vitro ENO1 activity assay (2-PGA to PEP, absorbance at 240 nm)
measured property: IC50 (µM)
Please reply with the bare figure in µM and do not write the unit itself.

### Prompt Entry O=C(O)c1ccccc1O , system ENO1 (Homo sapiens): what IC50 was measured?
### Response 1300
